# Test system: NCI-H157
# assay.procedure: Anticancer activity against human NCI-H157 cells at 100 uM after 48 hrs by SRB assay
# Format: functional
# condition.details: NCI-H157, 48 h, read-out: GI
value.kind: inhibition of growth at 100 µM (%)
Hi! Could you send only the number? It should be in %, unit omitted.

(Q) Query (molecule): `Fc1ccc(-c2nn3c(-c4ccncc4)nnc3s2)cc1Cl` ; field requested: inhibition of growth at 100 µM
(A) 53.7

(Q) Which inhibition of growth at 100 µM is reported for this molecule? `O=[N+]([O-])c1cccc(C2=Nn3c(nnc3-c3ccncc3)SC2)c1`
(A) 69.4

(Q) What value of measured inhibition of growth at 100 µM is listed for `Fc1ccc(OCc2nn3c(-c4ccncc4)nnc3s2)cc1` ?
(A) 32

(Q) Could you share which inhibition of growth at 100 µM value was measured for `CC[C@]1(O)C[C@H]2CN(CCc3c([nH]c4ccccc34)[C@@](C(=O)OC)(c3cc4c(cc3OC)N(C=O)[C@H]3[C@@](O)(C(=O)OC)[C@H](OC(C)=O)[C@]5(CC)C=CCN6CC[C@]43[C@@H]65)C2)C1` ?
(A) 74.5

====

# Tested on: NCI-H157
# assay.procedure: Anticancer activity against human NCI-H157 cells at 100 uM after 48 hrs by SRB assay
# Format: functional
# condition.details: NCI-H157, 48 h, read-out: GI
For each entry below, report its inhibition of growth at 100 µM value.
The reply should contain only the number, in %.

(Q) Recall the recorded inhibition of growth at 100 µM for `Clc1ccc(C2=Nn3c(nnc3-c3ccncc3)SC2)cc1Cl` with NCI-H157 and state it.
(A) 72.1

(Q) Request - read-out inhibition of growth at 100 µM | tested on NCI-H157 | compound `Cc1ccc(C2=Nn3c(nnc3-c3ccncc3)SC2)cc1`
(A) 63.8

(Q) What inhibition of growth at 100 µM appears in the records for this compound with NCI-H157? `c1cc(-c2nnc3sc(-c4ccoc4)nn23)ccn1`
(A) 64.3

(Q) Please tell me: inhibition of growth at 100 µM of `Fc1cc(Cl)ccc1-c1nn2c(-c3ccncc3)nnc2s1` , system NCI-H157?
(A) 85.5

(Q) API: value(readout=inhibition of growth at 100 µM, system=NCI-H157) for record `c1coc(-c2nn3c(-c4ccncc4)nnc3s2)c1`
(A) 67.9

(Q) Short answer please: inhibition of growth at 100 µM, NCI-H157, entry `Clc1cccc(C2=Nn3c(nnc3-c3ccncc3)SC2)c1`
(A) 67.4

(Q) Lab note: need inhibition of growth at 100 µM for `COc1cccc(C2=Nn3c(nnc3-c3ccncc3)SC2)c1` on NCI-H157, anyone have it?
(A) 54.4

(Q) Form field - read-out: inhibition of growth at 100 µM; system: NCI-H157; submitted item: `Cc1occc1-c1nn2c(-c3ccncc3)nnc2s1`
(A) 58.4

(Q) Kindly state the measured inhibition of growth at 100 µM obtained for `COc1ccc(OCc2nn3c(-c4ccncc4)nnc3s2)cc1` with NCI-H157.
(A) 68.9

(Q) Recorded inhibition of growth at 100 µM for `Nn1c(S)nnc1-c1ccncc1` with NCI-H157, please?
(A) 51.5

(Q) // lookup inhibition of growth at 100 µM | system=NCI-H157 | key= `CCOc1ccc(Cc2nn3c(-c4ccncc4)nnc3s2)cc1`
(A) 70.5

(Q) # query: inhibition of growth at 100 µM | item `Fc1cccc(C2=Nn3c(nnc3-c3ccncc3)SC2)c1` | system: NCI-H157
(A) 78.6

====

value.kind: pIC50
Please express pIC50 as -log10 of the molar concentration.

(Q) Param readout= pIC50; system= Acetylcholinesterase (Electrophorus electricus, UniProt O42275); entry= CN(C)C(=O)Oc1cccc([N+](C)(C)C)c1 [NEOSTIGMINE] ; returns value.
(A) 4.85

(Q) Notebook: pull reported pIC50 for Acetylcholinesterase (Electrophorus electricus, UniProt O42275), entry `c1ccc(-c2ccc(C3=Nn4c(nnc4-c4ccncc4)SC3)cc2)cc1`
(A) 4.79

(Q) Test system Acetylcholinesterase (Electrophorus electricus, UniProt O42275); read-out pIC50; what value for `Cc1occc1-c1nn2c(-c3ccncc3)nnc2s1` ?
(A) 4.29

(Q) Requested read-out pIC50, target or system Acetylcholinesterase (Electrophorus electricus, UniProt O42275), entry `Fc1cccc(C2=Nn3c(nnc3-c3ccncc3)SC2)c1`
(A) 4.73

(Q) So what pIC50 did `Cc1ccccc1OCc1nn2c(-c3ccncc3)nnc2s1` get with Acetylcholinesterase (Electrophorus electricus, UniProt O42275)?
(A) 4.38

(Q) Notebook entry, Acetylcholinesterase (Electrophorus electricus, UniProt O42275) assay: pIC50 of `COc1ccc(OCc2nn3c(-c4ccncc4)nnc3s2)cc1` = ?
(A) 6.11

(Q) Which pIC50 is reported with Acetylcholinesterase (Electrophorus electricus, UniProt O42275) for this entry: `Fc1cc(Cl)ccc1-c1nn2c(-c3ccncc3)nnc2s1` ?
(A) 4.67

(Q) What measured pIC50 is associated with `Fc1ccc(-c2nn3c(-c4ccncc4)nnc3s2)cc1Cl` on Acetylcholinesterase (Electrophorus electricus, UniProt O42275)?
(A) 4.52

(Q) Report pIC50 for `Nn1c(S)nnc1-c1ccncc1` tested on Acetylcholinesterase (Electrophorus electricus, UniProt O42275).
Sequence (O42275 whole entry): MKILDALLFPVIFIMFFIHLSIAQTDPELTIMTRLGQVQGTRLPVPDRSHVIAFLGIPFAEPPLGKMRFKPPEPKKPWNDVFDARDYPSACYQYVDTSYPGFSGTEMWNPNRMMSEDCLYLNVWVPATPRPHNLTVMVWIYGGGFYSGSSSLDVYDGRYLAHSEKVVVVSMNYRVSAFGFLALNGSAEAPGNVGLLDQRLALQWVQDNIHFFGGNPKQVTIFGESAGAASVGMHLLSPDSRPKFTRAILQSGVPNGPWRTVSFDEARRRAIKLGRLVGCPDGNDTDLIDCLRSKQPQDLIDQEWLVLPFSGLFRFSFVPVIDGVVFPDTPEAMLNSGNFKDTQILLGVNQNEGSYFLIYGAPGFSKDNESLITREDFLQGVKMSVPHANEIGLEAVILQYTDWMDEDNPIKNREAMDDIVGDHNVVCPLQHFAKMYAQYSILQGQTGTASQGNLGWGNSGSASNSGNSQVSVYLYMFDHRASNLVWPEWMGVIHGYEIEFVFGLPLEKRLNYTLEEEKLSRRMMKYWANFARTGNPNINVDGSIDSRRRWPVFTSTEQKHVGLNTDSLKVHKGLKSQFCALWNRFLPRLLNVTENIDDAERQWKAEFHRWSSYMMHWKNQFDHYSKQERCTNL
(A) 4.87

(Q) Which pIC50 is reported with Acetylcholinesterase (Electrophorus electricus, UniProt O42275) for this entry: `Clc1cccc(C2=Nn3c(nnc3-c3ccncc3)SC2)c1` ?
(A) 4.64

(Q) // lookup pIC50 | system=Acetylcholinesterase (Electrophorus electricus, UniProt O42275) | key= `COc1cccc(C2=Nn3c(nnc3-c3ccncc3)SC2)c1`
(A) 4.62

(Q) What is its pIC50 for Acetylcholinesterase (Electrophorus electricus, UniProt O42275)? Entry: `Oc1ccccc1OCc1nn2c(-c3ccncc3)nnc2s1`
(A) 4.27

(Q) What pIC50 appears in the records for this molecule with Acetylcholinesterase (Electrophorus electricus, UniProt O42275)? `c1coc(-c2nn3c(-c4ccncc4)nnc3s2)c1`
(A) 4.91

(Q) Missing value: pIC50, Acetylcholinesterase (Electrophorus electricus, UniProt O42275), entry `c1ccc2c(C3=Nn4c(nnc4-c4ccncc4)SC3)cccc2c1` . Fill in?
(A) 4.86

(Q) Give the reported pIC50 for `CCOc1ccc(Cc2nn3c(-c4ccncc4)nnc3s2)cc1` (system: Acetylcholinesterase (Electrophorus electricus, UniProt O42275)).
(A) 5.46

(Q) Kindly state the measured pIC50 obtained for `O=[N+]([O-])c1cccc(C2=Nn3c(nnc3-c3ccncc3)SC2)c1` with Acetylcholinesterase (Electrophorus electricus, UniProt O42275).
(A) 4.55

(Q) Record lookup: for Acetylcholinesterase (Electrophorus electricus, UniProt O42275), what pIC50 belongs to `Fc1ccc(OCc2nn3c(-c4ccncc4)nnc3s2)cc1` ?
(A) 4.43

(Q) Query the reported pIC50 for Acetylcholinesterase (Electrophorus electricus, UniProt O42275); item: `Oc1ccc(OCc2nn3c(-c4ccncc4)nnc3s2)cc1`
(A) 4.81

====

# test.system: Intestinal-type alkaline phosphatase (Bos taurus) (UniProt P19111)
# Sequence (P19111 20-506 limits assumed): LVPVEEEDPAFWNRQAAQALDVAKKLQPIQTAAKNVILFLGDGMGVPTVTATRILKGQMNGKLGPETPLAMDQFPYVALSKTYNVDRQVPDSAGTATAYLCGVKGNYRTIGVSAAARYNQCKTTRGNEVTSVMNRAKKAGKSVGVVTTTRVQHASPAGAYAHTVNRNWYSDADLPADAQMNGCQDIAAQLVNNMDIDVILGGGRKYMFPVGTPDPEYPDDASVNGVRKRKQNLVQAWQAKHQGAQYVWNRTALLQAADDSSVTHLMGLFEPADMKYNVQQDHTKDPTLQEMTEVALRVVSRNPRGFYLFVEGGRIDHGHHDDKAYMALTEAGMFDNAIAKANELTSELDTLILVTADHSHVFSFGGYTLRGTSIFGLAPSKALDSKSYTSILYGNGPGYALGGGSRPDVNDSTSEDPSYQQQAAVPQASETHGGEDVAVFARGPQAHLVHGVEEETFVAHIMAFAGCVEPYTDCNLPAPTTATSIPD
# assay.procedure: Inhibition of calf intestinal alkaline phosphatase using p-nitrophenyl phosphate as substrate preincubated for 10 mins before substrate addition after 30 mins
# Design: concentration or dose not given beside the values
Can you tell me inhibition for the items I'm about to list?
Field: value (include unit after the number)

(Q) Form field: inhibition recorded for `Oc1ccccc1OCc1nn2c(-c3ccncc3)nnc2s1` with Intestinal-type alkaline phosphatase (Bos taurus) (UniProt P19111) (enter value)
(A) 46%

(Q) Hello, I am looking for reported inhibition with Intestinal-type alkaline phosphatase (Bos taurus) (UniProt P19111) for `Fc1cc(Cl)c(-c2nn3c(-c4ccncc4)nnc3s2)cc1F` . Could you help?
(A) 31.6%

(Q) Lab note: need inhibition for `COc1cccc(C2=Nn3c(nnc3-c3ccncc3)SC2)c1` on Intestinal-type alkaline phosphatase (Bos taurus) (UniProt P19111), anyone have it?
(A) 38.5%

(Q) Lab note: need inhibition with Intestinal-type alkaline phosphatase (Bos taurus) (UniProt P19111) for entry `Clc1cccc(C2=Nn3c(nnc3-c3ccncc3)SC2)c1` , please look it up.
(A) 48%

(Q) inhibition of `Cc1ccc(C2=Nn3c(nnc3-c3ccncc3)SC2)cc1` on Intestinal-type alkaline phosphatase (Bos taurus) (UniProt P19111)?
(A) 35.7%

(Q) Item: `Cc1occc1-c1nn2c(-c3ccncc3)nnc2s1` Test system: Intestinal-type alkaline phosphatase (Bos taurus) (UniProt P19111) Read-out: inhibition Value: ?
(A) 29.9%

====

Provide the recorded inhibition for the entries that follow.
# test.system: Acetylcholinesterase (Electrophorus electricus) (UniProt O42275)
# Sequence (O42275 24-633 limits assumed): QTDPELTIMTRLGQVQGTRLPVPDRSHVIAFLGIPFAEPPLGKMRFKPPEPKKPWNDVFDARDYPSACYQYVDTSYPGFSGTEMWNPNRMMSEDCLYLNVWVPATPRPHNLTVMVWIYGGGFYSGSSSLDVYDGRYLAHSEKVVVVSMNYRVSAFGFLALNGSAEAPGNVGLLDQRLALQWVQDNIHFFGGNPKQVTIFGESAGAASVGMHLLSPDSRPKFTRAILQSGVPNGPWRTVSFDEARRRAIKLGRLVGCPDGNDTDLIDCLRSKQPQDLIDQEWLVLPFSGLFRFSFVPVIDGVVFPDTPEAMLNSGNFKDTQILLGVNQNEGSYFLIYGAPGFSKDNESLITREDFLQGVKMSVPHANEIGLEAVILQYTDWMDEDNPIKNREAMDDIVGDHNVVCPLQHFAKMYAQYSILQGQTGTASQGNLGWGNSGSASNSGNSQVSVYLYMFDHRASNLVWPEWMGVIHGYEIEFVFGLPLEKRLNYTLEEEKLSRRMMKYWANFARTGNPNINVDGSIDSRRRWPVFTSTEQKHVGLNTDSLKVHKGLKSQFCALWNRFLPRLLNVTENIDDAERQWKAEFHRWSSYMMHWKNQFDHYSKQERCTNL
# assay.procedure: Inhibition of electric eel acetylcholinesterase using acetylthiocholine iodide as substrate preincubated for 10 mins before substrate addition after 15 mins by Ellman's method
Output spec: scalar in %, unitless text.

(Q) Item under review: `Cc1ccc(C2=Nn3c(nnc3-c3ccncc3)SC2)cc1` . Reported inhibition?
(A) 46.1

(Q) Return reported inhibition; argument: `Clc1ccc(C2=Nn3c(nnc3-c3ccncc3)SC2)cc1Cl`
(A) 46

(Q) What does the record list as inhibition for `Fc1cc(Cl)c(-c2nn3c(-c4ccncc4)nnc3s2)cc1F` ?
(A) 47.2

(Q) I have this compound here, `c1cc(-c2nnc3sc(-c4ccoc4)nn23)ccn1` , and I need its recorded inhibition.
(A) 34.6

Hey, just so you know, these numbers are from ChEMBL document CHEMBL3232838.
